molecular target: recombinant human S1PR1 (Homo sapiens); assay: [32P]S1P competitive binding assay, S1PR1; conditions: read-out: S1PR1 IC50; mean ± SD; CHO cell membrane, recombinant human S1PR1, 0.1 nM [32P]S1P
Sequence (P21453 whole entry): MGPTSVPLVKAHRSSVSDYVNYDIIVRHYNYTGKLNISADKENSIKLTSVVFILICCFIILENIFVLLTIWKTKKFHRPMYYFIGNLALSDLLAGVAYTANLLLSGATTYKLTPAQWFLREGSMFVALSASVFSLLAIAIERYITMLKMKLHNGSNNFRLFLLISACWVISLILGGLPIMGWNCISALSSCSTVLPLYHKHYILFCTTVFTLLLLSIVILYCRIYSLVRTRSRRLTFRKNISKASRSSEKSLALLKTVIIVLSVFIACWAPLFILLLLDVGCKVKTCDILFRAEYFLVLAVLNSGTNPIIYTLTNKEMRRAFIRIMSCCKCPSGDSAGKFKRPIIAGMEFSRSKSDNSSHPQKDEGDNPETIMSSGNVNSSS
measured.metric: IC50 (nM)
Give the value, in units of nM, as a plain number.

Challenge: Given O=C(O)c1cn(Cc2ccc(-c3noc(-c4ccc(OCCF)c(C(F)(F)F)c4)n3)cc2)nn1 [12a] , state its recorded IC50.
Response given: 341

###

target: recombinant human S1PR5 (Homo sapiens); test: [32P]S1P competitive binding assay, S1PR5; conditions: read-out: IC50 (nM) S1PR5; mean ± SD; membranes with recombinant human S1PR5, [32P]S1P
Sequence (Q9H228 whole entry): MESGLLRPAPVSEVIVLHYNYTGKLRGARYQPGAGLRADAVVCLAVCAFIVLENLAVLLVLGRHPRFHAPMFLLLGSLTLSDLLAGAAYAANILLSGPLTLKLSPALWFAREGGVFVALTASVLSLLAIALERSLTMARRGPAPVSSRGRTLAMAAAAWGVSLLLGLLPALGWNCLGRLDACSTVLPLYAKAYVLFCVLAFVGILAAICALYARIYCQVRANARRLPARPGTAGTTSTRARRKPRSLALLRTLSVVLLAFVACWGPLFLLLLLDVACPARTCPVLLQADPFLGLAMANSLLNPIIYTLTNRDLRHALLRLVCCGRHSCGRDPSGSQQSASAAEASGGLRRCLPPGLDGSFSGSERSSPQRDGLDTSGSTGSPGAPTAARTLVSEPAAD
measured.metric: IC50

Challenge: Look up IC50: OCc1cn(Cc2ccc(-c3noc(-c4ccc(OCCF)c(C(F)(F)F)c4)n3)cc2)nn1 [12b]
Response given: > 1000 nM

###

target: recombinant human S1PR4 (Homo sapiens); test: [32P]S1P competitive binding assay, S1PR4
pIC50: −log10 of the molar value.
measured.metric: pIC50

Challenge: // map O=C(O)CCNCc1ccc(-c2noc(-c3ccc(OCCF)c(C(F)(F)F)c3)n2)cc1 [16b] to recorded pIC50 (system: recombinant human S1PR4 (Homo sapiens))
Response given: < 6.00

###

Collected IC50 values appear next to each entry.
target: recombinant human S1PR3 (Homo sapiens, UniProt Q99500); test: [32P]S1P competitive binding assay, S1PR3
Sequence (Q99500 whole entry): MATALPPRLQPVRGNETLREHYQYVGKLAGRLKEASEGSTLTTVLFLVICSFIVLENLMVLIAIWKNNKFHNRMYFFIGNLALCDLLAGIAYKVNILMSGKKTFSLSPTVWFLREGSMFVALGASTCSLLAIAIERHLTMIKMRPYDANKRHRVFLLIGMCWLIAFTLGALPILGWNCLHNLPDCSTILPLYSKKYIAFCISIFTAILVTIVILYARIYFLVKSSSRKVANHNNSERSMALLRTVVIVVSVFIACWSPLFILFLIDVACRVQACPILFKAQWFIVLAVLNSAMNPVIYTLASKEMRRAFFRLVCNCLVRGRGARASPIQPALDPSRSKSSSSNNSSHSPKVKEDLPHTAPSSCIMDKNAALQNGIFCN

Recorded results for 2 compounds are shown here.
NS(=O)(=O)c1ccc(-c2noc(-c3ccc(OCCF)c(C(F)(F)F)c3)n2)cc1 :: > 1000 nM
O=C(O)CCNCc1ccc(-c2noc(-c3ccc(OCCF)c(C(F)(F)F)c3)n2)cc1 [16b] :: > 1000 nM

Challenge: // query IC50 value for entry NNC(=O)c1ccc(-c2noc(-c3ccc(OCCF)c(C(F)(F)F)c3)n2)cc1 [10c]
Response given: > 1000 nM

###

# IC50 values compiled below
target: recombinant human S1PR1 (Homo sapiens); assay: [32P]S1P competitive binding assay, S1PR1; details: S1PR1 IC50 (nM), mean ± SD; CHO cell membrane, recombinant human S1PR1, 0.1 nM [32P]S1P
Answer with a number only, understood to be in nM.

Example compounds with recorded IC50:
O=C(O)CNCc1ccc(-c2noc(-c3ccc(OCCF)c(C(F)(F)F)c3)n2)cc1 [16a] :: 99.8
O=C(O)CCNCc1ccc(-c2noc(-c3ccc(OCCF)c(C(F)(F)F)c3)n2)cc1 [16b] :: 6.3

Next:
Challenge: Sample NCCOCc1ccc(-c2noc(-c3ccc(OCCF)c(C(F)(F)F)c3)n2)cc1 [21b] — what was its IC50?
Response given: 44.2

###

target: recombinant human S1PR4 (Homo sapiens, UniProt O95977); test: [32P]S1P competitive binding assay, S1PR4; settings: read-out: IC50 (nM) S1PR4; mean ± SD; membranes with recombinant human S1PR4, [32P]S1P
Sequence (O95977 whole entry): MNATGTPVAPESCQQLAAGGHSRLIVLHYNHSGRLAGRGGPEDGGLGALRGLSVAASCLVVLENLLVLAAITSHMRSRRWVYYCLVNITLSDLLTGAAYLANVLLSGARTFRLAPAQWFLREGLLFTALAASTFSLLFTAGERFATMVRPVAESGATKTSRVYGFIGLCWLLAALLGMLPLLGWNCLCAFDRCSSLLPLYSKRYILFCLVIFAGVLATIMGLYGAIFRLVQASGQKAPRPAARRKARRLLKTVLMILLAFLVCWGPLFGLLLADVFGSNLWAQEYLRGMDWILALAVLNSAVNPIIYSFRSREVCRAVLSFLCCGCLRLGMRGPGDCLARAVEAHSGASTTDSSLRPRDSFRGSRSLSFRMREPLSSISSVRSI
measured.metric: IC50

Challenge: Return reported IC50; argument: OCc1cn(Cc2ccc(-c3noc(-c4ccc(OCCF)c(C(F)(F)F)c4)n3)cc2)nn1 [12b]
Response given: > 1000 nM

###

target: recombinant human S1PR5 (Homo sapiens); assay: [32P]S1P competitive binding assay, S1PR5
measured.metric: IC50

Challenge: Could you tell me which IC50 is on file for O=C(O)CCNCc1ccc(-c2noc(-c3ccc(OCCF)c(C(F)(F)F)c3)n2)cc1 [16b] ?
Response given: > 1 µM
